Entry source: ChEMBL document CHEMBL1154947

experimental-target: Adenosine receptor A2b (Homo sapiens)
Sequence (P29275 whole entry): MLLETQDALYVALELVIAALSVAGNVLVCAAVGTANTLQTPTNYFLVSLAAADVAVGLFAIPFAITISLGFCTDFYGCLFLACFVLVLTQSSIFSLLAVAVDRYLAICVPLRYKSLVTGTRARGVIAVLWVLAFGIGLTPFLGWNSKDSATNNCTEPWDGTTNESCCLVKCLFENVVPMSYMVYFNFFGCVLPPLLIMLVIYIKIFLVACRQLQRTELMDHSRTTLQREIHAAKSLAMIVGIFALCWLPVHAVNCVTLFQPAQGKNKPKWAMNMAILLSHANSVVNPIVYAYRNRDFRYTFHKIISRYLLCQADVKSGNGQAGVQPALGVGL
pKi: −log10 of the molar value.
Mark not met for pKi values under 8, and met for everything at or above.

>  <compound-smiles>
O=C(Nc1ccc(Br)c(-c2ccco2)n1)C1CC1

>  <assigned-class>
not met

$$$$
>  <compound-smiles>
O=C(Nc1ccc(-c2ccncc2)c(-c2cnco2)n1)C1CC1

>  <assigned-class>
not met

$$$$
>  <compound-smiles>
O=C(Nc1ccc(-c2ccncc2)c(-c2cncs2)n1)C1CC1

>  <assigned-class>
not met

$$$$
>  <compound-smiles>
N#Cc1ccc(NC(=O)C2CC2)nc1-c1ccco1

>  <assigned-class>
not met

$$$$
>  <compound-smiles>
O=C(Nc1ccc(-c2ccncc2)c(-c2ncco2)n1)C1CC1

>  <assigned-class>
not met

$$$$
>  <compound-smiles>
O=C(Nc1ccc(-c2ccncc2F)c(-c2ccco2)n1)C1CC1

>  <assigned-class>
met

$$$$
